- SUBJECT_OF_TEST: C1r (Homo sapiens)
- Sequence (P00736 464-705 limits assumed): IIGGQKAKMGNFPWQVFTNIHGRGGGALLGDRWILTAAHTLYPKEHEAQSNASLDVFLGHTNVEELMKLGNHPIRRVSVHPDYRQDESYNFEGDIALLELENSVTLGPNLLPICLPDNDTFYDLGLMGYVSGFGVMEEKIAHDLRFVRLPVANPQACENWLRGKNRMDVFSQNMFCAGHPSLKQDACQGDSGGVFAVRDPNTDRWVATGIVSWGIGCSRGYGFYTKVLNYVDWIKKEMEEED
- Sequence (P00736 18-463 partner limits assumed): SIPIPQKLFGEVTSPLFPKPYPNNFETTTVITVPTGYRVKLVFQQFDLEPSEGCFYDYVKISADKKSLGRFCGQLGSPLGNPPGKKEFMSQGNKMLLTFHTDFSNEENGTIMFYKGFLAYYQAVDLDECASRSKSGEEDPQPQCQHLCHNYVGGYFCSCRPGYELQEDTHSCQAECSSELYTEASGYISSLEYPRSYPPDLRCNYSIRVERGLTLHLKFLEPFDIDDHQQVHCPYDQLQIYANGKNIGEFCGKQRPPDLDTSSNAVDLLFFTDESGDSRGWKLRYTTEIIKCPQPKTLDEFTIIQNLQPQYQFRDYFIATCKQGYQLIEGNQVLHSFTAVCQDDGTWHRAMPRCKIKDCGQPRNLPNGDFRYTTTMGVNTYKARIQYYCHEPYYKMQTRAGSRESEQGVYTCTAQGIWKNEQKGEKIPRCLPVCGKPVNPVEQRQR
- TEST_DESCRIPTION: biochemical
- CONDITIONS_USED: read-out: ID50 C1r (Anti-C1 activity)
READOUT: IC50 (nM)

> print(dat)
                                     smiles     subject.of.test  test.value
1  N=C(N)Nc1ccc(C(=O)NCc2ccc(C(=O)Oc3ccc4cc(C(=N)N)ccc4c3)o2)cc1  C1r (Homo sapiens)         300

----------
Sequence of the target: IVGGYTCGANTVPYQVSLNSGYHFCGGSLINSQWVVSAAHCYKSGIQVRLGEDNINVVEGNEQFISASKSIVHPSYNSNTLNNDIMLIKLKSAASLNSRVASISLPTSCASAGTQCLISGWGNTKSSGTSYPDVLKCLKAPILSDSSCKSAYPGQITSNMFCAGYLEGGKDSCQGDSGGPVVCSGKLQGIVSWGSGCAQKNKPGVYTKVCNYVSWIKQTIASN
pIC50: −log10 of the molar value.
READOUT: pIC50

> print(dat)
                                   molecule  test.value
1  N=C(N)Nc1ccc(C(=O)NCc2ccc(C(=O)Oc3ccc4cc(C(=N)N)ccc4c3)o2)cc1        6.70
2  N=C(N)c1ccc2cc(OC(=O)c3ccc(CNC(=O)C4CCC(CN)CC4)o3)ccc2c1 (centres unmarked)        6.30
3  N=C(N)c1ccc2cc(OC(=O)c3ccc(NC4=NCCN4)o3)ccc2c1        7.40
4  N=C(N)c1ccc2cc(OC(=O)c3ccc(CNC4=NCCN4)o3)ccc2c1        5.52
5  CNC(=N)Nc1ccc(C(=O)Oc2ccc3cc(C(=N)N)ccc3c2)o1        6.52
6  CCN=C(NCC)NCc1ccc(C(=O)Oc2ccc3cc(C(=N)N)ccc3c2)o1        5.70
7  N=C(N)c1ccc2cc(OC(=O)c3ccc(CNC(=O)CCOCc4ccccc4)o3)ccc2c1        6.05
8  CNC(=N)NCc1ccc(C(=O)Oc2ccc3cc(C(=N)N)ccc3c2)o1        5.40

Source of measurements: patent US4563527A
